assay_remarks: anti-His antibody binders, primary screen, artefact control for SMM control protein annotation, biochemical, small-molecule microarray, 635 nm fluorescence (AID 1128);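 note: score merges feature fluorescence with signal-to-noise for each printed compound spot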
particulars: anti-His Alexa647 antibody binding, higher = more signal
Classification by composite z-score follows these ranges: bottom bin: < 0.5; middle bin: ≥ 0.5 and < 2; top bin: ≥ 2

Example entries and their recorded answers appear below.
INSERT INTO measurements (molecule, answer_label) VALUES
  ('COc1cc2c(cc1O)C(c1cccs1)N(Cc1sc3ccccc3c1Cl)CC2 (stereo not given)', 'top bin'),
  ('COC(=O)[C@@]1(Cc2ccc(F)cc2)[C@H]2c3cc(C(=O)N(C)C)n(Cc4c(CO)[nH]cc(C)c4=O)c3C[C@H]2CN1C(=O)c1ccccc1', 'bottom bin'),
  ('O=C1C2C=CC(C(O)c3ccco3)N(Nc3ccccc3)C2C(=O)N1c1ccccc1 (stereo not given)', 'bottom bin'),
  ('C=C[C@@H](C)[C@@H](OC(=O)Nc1ccc(SC)cc1)c1ccc(OCCO)cc1', 'middle bin'),
  ('COC(=O)C1=CC(CCCO)=CC(C)N(Cc2cccc(OC(F)(F)F)c2)C=C1C(=O)OC (stereo not given)', 'bottom bin');

Where would C=C(CCCC)C(=O)CC[C@H](OC(=O)c1ccccc1-c1ccccc1C(=O)O)c1ccccc1OCCO land among the classes by reported composite z-score? middle bin

GET /class?item= C=CCN1C(=O)[C@]2(O[C@H](CCO)[C@@H]([Si](C)(C)c3ccc(OC)cc3)[C@@H]2C)c2cc(NC(=O)c3ccc(OC)cc3)ccc21 middle bin
